Test system: U2932 TK216-resistant clone 3
Experiment: cell proliferation relative to vehicle (% of vehicle); higher = less growth inhibition
Settings: 500 nM; 72 h
Attribute measured: cell proliferation
Please respond with just the number, no unit label.

| Molecule | Subject of test | cell proliferation |
| --- | --- | --- |
| NC(=O)c1ccc(I)c([N+](=O)[O-])c1 | U2932 TK216-resistant clone 3 | 103 |
| C[C@]12CC[C@@H]3c4ccc(O)cc4C[C@@H](CCCCCCCCC[S+]([O-])CCCC(F)(F)C(F)(F)F)[C@H]3[C@@H]1CC[C@@H]2O (some centres not stated) | U2932 TK216-resistant clone 3 | 104 |

Query: Tell me its cell proliferation given `CCC(C)(C)C(=O)O[C@H]1C[C@@H](C)C=C2C=C[C@H](C)[C@H](CC[C@@H]3C[C@@H](O)CC(=O)O3)[C@H]21` as the entry.
Result: 89.1

Query: Read the entry `C[C@H](Nc1ncnc2nc[nH]c12)c1cc2cccc(Cl)c2c(=O)n1-c1ccccc1` and write its reported cell proliferation.
Result: 94.3

Query: Output measured cell proliferation for this item: `CCCCCCCCCCCCCCCCCCOP(=O)([O-])OC1CC[N+](C)(C)CC1`
Result: 110

Query: State, in one line, measured cell proliferation of `CC[C@@](C)(Nc1ccnc(-c2c[nH]c3ncccc23)n1)C(=O)NCC(F)(F)F`
Result: 105

Query: Give reported cell proliferation value for `O=C(O)C(=O)O.[NH-][C@@H]1CCCC[C@H]1[NH-].[Pt+2]`
Result: 96.6
